B1: NET1 (parent)
chain: PTPAKRRSSALWSEMLDITMKESL

Variants of: B1
Test Protocol: protein stability index of a GFP-peptide fusion (GPS, HEK-293T) (PSI 1-6); higher = more stable;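 also: lentivirally expressed fusions sorted by FACS into six bins by GFP to DsRed ratio, PSI derived from sequencing read proportions per bin multiplied by bin number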
Reported Conditions: c terminus: a fixed tail appended
Reported Metric: protein stability index
Please reply with the value in numeric form only.

In: Entry under review: S9F . Reported protein stability index?
Out: 2.05

In: Could you do the same for L24K , please?
Out: 3.05

In: Could you do the same for T2F , please?
Out: 1.97

In: Could you do the same for R6P , please?
Out: 2.02

In: Could you do the same for S8I , please?
Out: 2.03
